FYI, the data here is from PubChem BioAssay AID1996.

conditions: buffer; pH 7.4; 200.0 µM
MEASURED PARAMETER: solubility kinetic

Solved entries:
| COMPOUND | solubility kinetic |
| --- | --- |
| COc1ccccc1N1C(=O)c2cccc3c(Cl)ccc(c23)C1=O | < 0.7 µg/mL |
| CCOc1ccc(C(=O)NCC(c2cccs2)N2CCOCC2)cc1 (configuration not stated) | > 54.1 µg/mL |
| NC(=O)C1CCN(C(=O)CNC(=O)c2ccccc2)CC1 | > 43.4 µg/mL |
| COCCn1c(SCC(=O)NC2CCCC2)nnc1-c1ccco1 | > 52.6 µg/mL |

Lookup: Which value of solubility kinetic has been reported for O=Cc1cccc(Oc2ncccn2)c1 in the records?
Found: > 30 µg/mL

Lookup: Requested field: solubility kinetic. Item: CCCCN(CCO)c1ncnc2sc(-c3ccccc3)cc12
Found: < 0.2 µg/mL

Lookup: Which solubility kinetic reading was recorded for the compound Cl.O=C(O)Cc1cnc[nH]1 ?
Found: > 24.4 µg/mL

Lookup: Data request, read-out solubility kinetic, for Cc1cc(NC(=O)c2cc([N+](=O)[O-])ccc2Cl)no1
Found: > 42.2 µg/mL

Lookup: Need solubility kinetic, item CCOc1ccc(N2C(=O)/C(=C/c3ccccn3)SC2=S)cc1
Found: < 0.4 µg/mL

Lookup: Please report the recorded solubility kinetic for CC1CN(C(=O)CNC(=O)COc2ccccc2)CC(C)O1 (configuration not stated) .
Found: > 46 µg/mL

Lookup: Which measured solubility kinetic value corresponds to Cc1nn(C)c(NC(=O)c2ccccc2Cl)c1Br ?
Found: > 49.3 µg/mL

Lookup: Please report the recorded solubility kinetic for COc1ccc(C(=O)Nc2cccc3c2CCCC3)c(OC)c1 .
Found: < 0.7 µg/mL

Lookup: Consider the compound shown here: COc1ccc(NS(=O)(=O)c2ccc3c(c2)OCCO3)cc1OC What is its recorded solubility kinetic?
Found: > 52.7 µg/mL

Lookup: Recorded solubility kinetic for CSCCC(NC(=O)c1ccco1)c1nc2ccccc2[nH]1 (configuration not stated) , please?
Found: > 47.3 µg/mL

Lookup: Please give the measured solubility kinetic for this compound: CC(C)COC(=O)N1C[C@H](O)C[C@H]1C(=O)Nc1ccc(Cl)cc1
Found: > 51.1 µg/mL

Lookup: Please look up its solubility kinetic: CCCCCC(=O)Nc1cccc(S(=O)(=O)NC2=NCCC2)c1
Found: > 50.6 µg/mL

Lookup: Given CCC(C)N1C(=O)CCC1C(=O)NCCc1ccc(Cl)cc1 (configuration not stated) , state its recorded solubility kinetic.
Found: > 48.4 µg/mL

Lookup: Query (compound): CSc1nc(N2CCOCC2)c2c(c1C#N)CC(C(C)C)OC2 (configuration not stated) ; field requested: solubility kinetic
Found: < 0.2 µg/mL

Lookup: Fill in: solubility kinetic of CN1CCCCCC1=Nc1ccc([N+](=O)[O-])cc1.Cl is ___
Found: > 42.6 µg/mL

Lookup: # query: solubility kinetic of entry CN(C)S(=O)(=O)N1CCC(CO)(CCc2ccccc2)CC1
Found: > 49 µg/mL

Lookup: # query: solubility kinetic of entry CC(NC(=O)c1ccc(S(=O)(=O)Nc2ccccc2Cl)cc1)c1ccncc1 (configuration not stated)
Found: > 62.4 µg/mL

Lookup: Need solubility kinetic, item CN1CCCN(C(=O)c2ccccc2Cl)CC1
Found: > 37.9 µg/mL

Lookup: Could you share which solubility kinetic value was measured for CCOC(=O)C1CCCN1C(=O)c1ccc(OC)c(Br)c1 (configuration not stated) ?
Found: > 53.4 µg/mL

Lookup: Data request, read-out solubility kinetic, for CCc1ccc(NC(=O)c2cc(Br)ccc2Br)cc1
Found: < 0.8 µg/mL

Lookup: Param item = CN1CCC(N(C)C(=O)c2cc(-c3ccc(F)cc3)nc3ccccc23)CC1.Cl ; retrieve measured solubility kinetic.
Found: > 62.1 µg/mL

Lookup: Could you share which solubility kinetic value was measured for O=C(/C=C/c1ccc(F)cc1)N1CC[C@@]2(O)CCCC[C@H]2C1 ?
Found: > 45.5 µg/mL

Lookup: Sample O=C(O)C1C2c3ccccc3C(c3ccccc32)C1C(=O)Nc1ccccc1 (configuration not stated) — what was its solubility kinetic?
Found: > 55.4 µg/mL
